# Measurement protocol: Stability at pH 7.4 in PBS in the presence of L-cysteine (50x)
# Format: physicochemical
# Condition parameters: pH 7.4, 37 °C, 1 h
Experimental endpoint: Stability (% compound ± SE), buffer + cysteine (50×) (%)

Compound: O=C(O)c1ccc(-c2cssc2=S)cc1 [Compound 11]
Result: 99.0
//
Compound: O=C(O)c1csc(=S)s1 [Compound 15]
Result: 100.0
//
Compound: NC(=S)c1ccc(C(=O)O)cc1 [Compound 17]
Result: 97.6
//
Compound: O=C(O)c1ccc(-c2ssc(=S)c2-c2ccccc2)cc1 [Compound 9]
Result: 98.6
//
Compound: C=CCSCC(NC(C)=O)C(=O)O (stereo not drawn) [Compound 1]
Result: 87.3
//
Compound: O=C(O)COc1ccc(-c2cc(=S)ss2)cc1 [Compound 13]
Result: 99.0

---

# System: rat aorta strips
# Measurement protocol: Vasodilating activity on endothelium-denuded rat aorta strips precontracted with KCl
# Type: cell-based
# Condition parameters: presence vs absence of K+ATP channel blocker glibenclamide
Experimental endpoint: Effect of glibenclamide on the concentration-response curve / EC50

Sample smiles: CC(=O)NSC(=O)c1ccccc1
Result: almost the same
--
Sample smiles: CCOC(=O)c1ccc(-c2cssc2=S)cc1
Result: almost the same

---

# Measurement protocol: Stability at pH 7.4 in PBS in the presence of L-cysteine (50x)
# Assay type: physicochemical
# Condition parameters: pH 7.4, 37 °C, 24 h
Experimental endpoint: Stability (% compound ± SE), buffer + cysteine (50×) (%)

Below, 4 compounds whose answers are already recorded.
Compound: C=CCSCC(NC(C)=O)C(=O)O (stereo not drawn) [Compound 1]
Unit annotation: %
Result: 69.5
//
Compound: NC(=S)c1ccc(C(=O)O)cc1 [Compound 17]
Unit annotation: %
Result: 25.0
//
Compound: O=C(O)c1csc(=S)s1 [Compound 15]
Unit annotation: %
Result: 96.6
//
Compound: O=C(O)c1ccc(-c2ssc(=S)c2-c2ccccc2)cc1 [Compound 9]
Unit annotation: %
Result: 78.1

1: O=C(O)COc1ccc(-c2cc(=S)ss2)cc1 [Compound 13]
2: O=C(O)c1ccc(-c2cssc2=S)cc1 [Compound 11]
Exercise: Between 1 and 2 , whose measured Stability (% compound ± SE), buffer + cysteine (50×) reads higher? # reply format: chosen label
Solution: 1

---

# Measurement protocol: Stability of the compounds in human serum (RP-HPLC)
# Format: in vitro ADME
# Condition parameters: 37 °C, 200 µM, 1 h
Experimental endpoint: % Compd ± SE (%)

Below, 6 compounds whose answers are already recorded.
Compound: NC(=S)c1ccc(C(=O)O)cc1
Result: 91.6

Compound: C=CCSCC(NC(C)=O)C(=O)O (stereo not drawn)
Result: 88

Compound: O=C(O)CCC(=O)NSC(=O)c1ccccc1
Result: 19.8

Compound: O=C(O)COc1ccc(-c2cc(=S)ss2)cc1
Result: 99.2

Compound: O=C(O)c1ccc(-c2ssc(=S)c2-c2ccccc2)cc1
Result: 94.2

Compound: O=C(O)c1csc(=S)s1
Result: 99.2

P: C=CCSSCC(NC(C)=O)C(=O)O (stereo not drawn)
Q: O=C(O)c1ccc(-c2cssc2=S)cc1
Exercise: Among P and Q , whose measured % Compd ± SE is the smaller figure? # reply format: chosen label
Solution: P

---

activation at 300 µM values, listed per item
# System: rat aorta strips
# Measurement protocol: Vasodilating activity on endothelium-denuded rat aorta strips precontracted with KCl
# Format: cell-based
# Condition parameters: 300 μM; rat aorta strips precontracted with KCl; read-out: % Vasodilation at the maximum concentration testable
I only need the number, in %, no unit after it.

Below, 3 molecules whose answers are already recorded.
Molecule: NC(=S)c1ccc(C(=O)O)cc1
Unit annotation: %
activation at 300 µM: 27
--
Molecule: O=C(O)c1csc(=S)s1
Unit annotation: %
activation at 300 µM: 17
--
Molecule: C=CCSSCC(NC(C)=O)C(=O)O (stereo not shown)
Unit annotation: %
activation at 300 µM: 16

# ---- query molecule ----
Exercise: Please look at this molecule and report its activation at 300 µM: O=C(O)CCC(=O)NSC(=O)c1ccccc1
Solution: 12

---

# Measurement protocol: Stability at pH 7.4 in PBS in the presence of L-cysteine (50x)
# Format: physicochemical
# Condition parameters: phosphate buffer (PBS) with L-cysteine; pH 7.4, 37 °C; read-out: t1/2, buffer + cysteine (50×) (converted)
# Protocol: The compounds were solubilized at a concentration of 100 µM (starting from a 10 mM stock solution in DMSO) in 0.1 M PBS, pH = 7.4, in the absence or presence of 5 mM L-cysteine (50×). The solutions were incubated at 37.0 ± 0.5 °C, and at appropriate time intervals, aliquots were analyzed by RP-HPLC as described below. All experiments were performed at least in triplicate. […]
Experimental endpoint: half-life at 100 µM

Below, 2 compounds whose answers are already recorded.
Compound: C=CCSSCC(NC(C)=O)C(=O)O (stereo not drawn) [Compound 5]
half-life at 100 µM: ~5 min
--
Compound: O=C(O)CCC(=O)NSC(=O)c1ccccc1 [Compound 7]
half-life at 100 µM: ~78 min

# ---- query compound ----
Exercise: Please look at this compound and report its half-life at 100 µM: C=CCSSCCC(=O)O [Compound 3]
Solution: ~10 min

---

# Measurement protocol: Stability at pH 7.4 in phosphate buffer (PBS)
# Format: physicochemical
# Condition parameters: PBS pH 7.4, 37 °C, 24 h
# Experimental: The compounds were solubilized at a concentration of 100 µM (starting from a 10 mM stock solution in DMSO) in 0.1 M PBS, pH = 7.4, in the absence or presence of 5 mM L-cysteine (50×). The solutions were incubated at 37.0 ± 0.5 °C, and at appropriate time intervals, aliquots were analyzed by RP-HPLC as described below. All experiments were performed at least in triplicate. […]
Experimental endpoint: Stability (% compound ± SE), buffer (%)

Compound: O=C(O)c1ccc(-c2ssc(=S)c2-c2ccccc2)cc1
Stability (% compound ± SE), buffer, %: 92.6
//
Compound: C=CCSSCCC(=O)O
Stability (% compound ± SE), buffer, %: 101.0
//
Compound: O=C(O)COc1ccc(-c2cc(=S)ss2)cc1
Stability (% compound ± SE), buffer, %: 101.8
//
Compound: O=C(O)c1csc(=S)s1
Stability (% compound ± SE), buffer, %: 100.0
//
Compound: C=CCSSCC(NC(C)=O)C(=O)O (stereo not drawn)
Stability (% compound ± SE), buffer, %: 87.7
//
Compound: O=C(O)c1ccc(-c2cssc2=S)cc1
Stability (% compound ± SE), buffer, %: 94.8
